Numbers sourced from PubChem BioAssay AID248.

System: L1210 leukemia ip in BDF1 mice, survival T/C
Measurement Notes: NCI In Vivo Anticancer Drug Screen. Data for tumor model L1210 Leukemia (intraperitoneal) in B6D2F1 (BDF1) mice
Condition: endpoint: mean survival time; dose: 400.0 mg/kg/injection; schedule: Q01DX001 (ip); vehicle: carboxymethylcellulose (CMC); higher = longer survival
Toxic doses and inconclusive results are not listed.
As shown below, each of these compounds has a reported T/C value.

>>> df
                                smiles_data  value_type          observed
0  CCOC(=O)CCCN(c1ccccc1)S(=O)(=O)c1ccc(C)cc1         T/C  107 % of control
1            C[Si](C)(CCl)CCCO[Si](C)(C)CCl         T/C   98 % of control

Note: attention shifts to another entry.
Look up T/C for this compound: `O=C1c2cc([N+](=O)[O-])ccc2-c2cc(F)ccc21`
90 % of control

====

Tested on: L1210 leukemia ip in BDF1 mice, survival T/C
Measurement Notes: NCI In Vivo Anticancer Drug Screen. Data for tumor model L1210 Leukemia (intraperitoneal) in B6D2F1 (BDF1) mice
Condition: endpoint: mean survival time; dose: 400.0 mg/kg/injection; schedule: Q04DX003 (ip); vehicle: Klucel (hydroxypropylcellulose) (HPC); higher = longer survival
Toxic doses and inconclusive results are not listed.
As shown below, each of these compounds has a reported T/C value.

In [3]: df
Out[3]:
                                   compound                              assay_target  value_type          observed
0  O=C(Sc1cccc2ccccc12)c1ccc([N+](=O)[O-])cc1  L1210 leukemia ip in BDF1 mice, survival T/C         T/C   95 % of control
1    COc1ccc(COC(=O)Nc2ccc(Cl)c(Cl)c2)cc1OC  L1210 leukemia ip in BDF1 mice, survival T/C         T/C   90 % of control
2  CS(=O)(=O)OCC1C2CCC(CC2)C1COS(C)(=O)=O (stereo unspecified)  L1210 leukemia ip in BDF1 mice, survival T/C         T/C  102 % of control
3                   CC(=O)NCc1cc(C)c(C)cc1C  L1210 leukemia ip in BDF1 mice, survival T/C         T/C  109 % of control

Provide the documented T/C with L1210 leukemia ip in BDF1 mice, survival T/C as the system for `O=C(NCCCl)Nc1cccc2cc3ccccc3cc12`
102 % of control

Provide the documented T/C with L1210 leukemia ip in BDF1 mice, survival T/C as the system for CC(CCNc1ccc(NCCC(C)CC(C)(C)C)cc1)CC(C)(C)C (stereo unspecified)
96 % of control

Provide the documented T/C with L1210 leukemia ip in BDF1 mice, survival T/C as the system for `CCc1ccc(OS(=O)(=O)c2ccccc2[N+](=O)[O-])cc1`
95 % of control

Provide the documented T/C with L1210 leukemia ip in BDF1 mice, survival T/C as the system for `Cc1cc(C(C)(C)C)cc(C)c1O`
95 % of control

Provide the documented T/C with L1210 leukemia ip in BDF1 mice, survival T/C as the system for CCCC(C)(COC(N)=O)COC(=O)NC(C)C (stereo unspecified)
101 % of control

Provide the documented T/C with L1210 leukemia ip in BDF1 mice, survival T/C as the system for `CCOc1ccccc1NC(=O)Nc1cccc2ccccc12`
88 % of control

Provide the documented T/C with L1210 leukemia ip in BDF1 mice, survival T/C as the system for `CC(=O)C(C)(C)/C(C)=C/C(=O)O`
97 % of control

Provide the documented T/C with L1210 leukemia ip in BDF1 mice, survival T/C as the system for `O=S(=O)(O)c1ccc(-c2nc3ccccc3[nH]2)cc1`
98 % of control

Provide the documented T/C with L1210 leukemia ip in BDF1 mice, survival T/C as the system for `O=C(Oc1ccccc1I)c1cc(I)c(I)c(I)c1`
94 % of control

Provide the documented T/C with L1210 leukemia ip in BDF1 mice, survival T/C as the system for `Cc1ccc(S(=O)(=O)Nc2ccccc2OS(=O)(=O)c2ccc(C)cc2)cc1`
97 % of control

Provide the documented T/C with L1210 leukemia ip in BDF1 mice, survival T/C as the system for `COC(=O)c1ccc([N+](=O)[O-])c(O)c1`
102 % of control

Provide the documented T/C with L1210 leukemia ip in BDF1 mice, survival T/C as the system for `Cc1cc(C)c2c(c1)-c1nc3c(cc1CC2)CCc1c(C)cc(C)cc1-3`
97 % of control

Provide the documented T/C with L1210 leukemia ip in BDF1 mice, survival T/C as the system for CCOC(=O)C1(C)C(=O)CC2c3nc4ccccc4cc3CN2C1=O (stereo unspecified)
97 % of control

Provide the documented T/C with L1210 leukemia ip in BDF1 mice, survival T/C as the system for `CN1CN(c2ccccc2)C2(CCN(Cc3cc(=O)c4ccccc4o3)CC2)C1=O`
98 % of control

Provide the documented T/C with L1210 leukemia ip in BDF1 mice, survival T/C as the system for CCOC1c2cc(OC)ccc2C(=O)CCN1S(=O)(=O)c1ccc(C)cc1 (stereo unspecified)
96 % of control

Provide the documented T/C with L1210 leukemia ip in BDF1 mice, survival T/C as the system for `CCN(C(=O)Nc1cccc(C(F)(F)F)c1)c1ccccc1C(F)(F)F`
93 % of control

Provide the documented T/C with L1210 leukemia ip in BDF1 mice, survival T/C as the system for `NC(=S)NNC=O`
100 % of control

Provide the documented T/C with L1210 leukemia ip in BDF1 mice, survival T/C as the system for `O=C1c2ccccc2-c2nc3ncccc3nc21`
98 % of control

====

As shown below, each of these compounds has a reported T/C value.
Tested on: L1210 leukemia ip in BDF1 mice, survival T/C
Measurement Notes: NCI In Vivo Anticancer Drug Screen. Data for tumor model L1210 Leukemia (intraperitoneal) in B6D2F1 (BDF1) mice
Condition: endpoint: mean survival time; dose: 200.0 mg/kg/injection; schedule: Q04DX003 (ip); vehicle: Klucel (hydroxypropylcellulose) (HPC); higher = longer survival
Toxic doses and inconclusive results are not listed.

Consider the worked cases shown below.
>>> print(df.to_string())
                                   compound  value_type          observed
0                       O=c1cc(O)nc2ccccn12         T/C   96 % of control
1               CCOc1ccccc1NC(=O)Nc1ccccc1C         T/C  105 % of control
2  Cc1ccc(S(=O)(=O)Nc2ccccc2OS(=O)(=O)c2ccc(C)cc2)cc1         T/C  100 % of control
3                   Cc1ccc2ccccc2c1CC(=O)NN         T/C  104 % of control
4  C=CCOCC(O)CN(CC)c1ccccc1 (stereo unspecified)         T/C  102 % of control

Look up T/C for this compound: `NCCc1ccc(S(=O)(=O)O)cc1[N+](=O)[O-]`
94 % of control

====

Test system: L1210 leukemia ip in BDF1 mice, survival T/C
Measurement Notes: NCI In Vivo Anticancer Drug Screen. Data for tumor model L1210 Leukemia (intraperitoneal) in B6D2F1 (BDF1) mice
Condition: endpoint: mean survival time; dose: 100.0 mg/kg/injection; schedule: Q04DX002 (ip); vehicle: saline; higher = longer survival
Toxic doses and inconclusive results are not listed.
As shown below, each of these compounds has a reported T/C value.

>>> df
                                   compound          observed
0  CN1CCN(C(=O)C2CCCCC2C(=O)O)CC1 (stereo not drawn)  107 % of control

Look up T/C for this compound: `O=C1CNCSC1`
102 % of control

Look up T/C for this compound: `Nc1ccc([As](=O)(O)O)cc1`
91 % of control

Look up T/C for this compound: CCCOCCOCCOC(C)Oc1ccc(C(=O)OC)cc1 (stereo not drawn)
101 % of control

====

As shown below, each of these compounds has a reported T/C value.
Test system: L1210 leukemia ip in BDF1 mice, survival T/C
Measurement Notes: NCI In Vivo Anticancer Drug Screen. Data for tumor model L1210 Leukemia (intraperitoneal) in B6D2F1 (BDF1) mice
Condition: endpoint: mean survival time; dose: 200.0 mg/kg/injection; schedule: Q04DX003 (ip); vehicle: Klucel (hydroxypropylcellulose) (HPC); higher = longer survival
Inconclusive results and toxic doses are left out.

Consider the worked cases shown below.
                                   compound          observed
0  CC(CC(=O)O)c1ccc(C(C)(C)C)cc1 (stereo not given)  107 % of control
1      Clc1cc(Cl)c2c(c1)Cc1cc(Cl)cc(Cl)c1-2   89 % of control
2  CCCCCCCCCCCCCCCCOc1ccc(C(=O)Nc2ccc(S(=O)(=O)Nc3cccc4ccccc34)cc2)cc1S(=O)(=O)F  100 % of control
3       Nc1ccc(S(=O)(=O)Nc2cccc3ccccc23)cc1   92 % of control
4              CC(C)N1CSC(=S)N(Cc2ccccc2)C1   95 % of control

Look up T/C for this compound: `Cc1cc(N(CCCCl)CCCCl)ccc1C=Nc1cccc(Cl)c1`
101 % of control

Look up T/C for this compound: `O=Cc1ccc(N(c2ccccc2)c2ccccc2)cc1`
100 % of control
